Source listed as a melting point compilation (Tetko et al.; mined from patent text by program, amines drawn as free bases though some values may be those of a salt).

QUANTITY_MEASURED: melting point

• OCC(O)Cc1nccn1CCCCc1ccc(OCc2coc(/C=C/c3c(F)cccc3F)n2)cc1 (stereo unspecified) = 123 to 125 °C

Below are some molecules; for each one, tell me its melting point.
1. CCCc1nc2c(N)nc3cccnc3c2n1CCCCN(OC)C(=O)NC(C)C
2. CCOC(=O)CCc1cc(O)nn1Cc1ccccc1

OUT:
1. 161 to 162 °C
2. 128 to 129 °C

Required: melting point, one value per molecule below.
1. CC1=NC(C)(C)N(O)C1(C)C
2. COc1cc(-c2cc(O)n(C)n2)cc([N+](=O)[O-])c1OC
3. FC(F)(F)c1cccc(C(c2ccc3ncccc3c2Cl)n2cncn2)c1 (stereo unspecified)

OUT:
["127 to 128 °C", "200 to 202 °C", "144 °C"]
